# maps each entry to its z-score
Experiment Description: splicing luciferase reporter signal modulators, primary screen, spliceosome inhibition project, cell-based, HEK293, splice +/- reporter (AID 1101);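 also: HEK293 cells carrying a splicing-competent luciferase reporter gene; test concentration not given here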
Test Settings: luminescence, 24 h, higher = more signal, called active from +8 up or from −8 down
The source made the active and inactive calls.
Attribute Measured: z-score

Compound	Value Measured
CC1CC/C=C\[C@H]2OC34C=CCN(c5ccc(Cl)cc5)C(=O)[C@H]3N(CCCCCO)C(=O)[C@]4(C)C2C(=O)O1 (stereo not given in full)	0.4 (inactive)
CN(C)C(=O)[C@]1(CCS(=O)(=O)c2ccccc2)N=C(c2ccc(OCCCO)cc2)O[C@@H]1c1ccccc1N=[N+]=[N-]	-2.08 (inactive)
COCCCNC(=O)[C@]1(CCS(=O)(=O)c2ccccc2)N=C(c2ccc(OCCCO)cc2)O[C@@H]1c1ccccc1CN=[N+]=[N-]	-0.325 (inactive)
C[C@@H]1ON(c2ccc(C(=O)OC(C)(C)C)cc2)[C@H](c2ccc(O)cc2)[C@H]1C(=O)N1C(=O)OC[C@H]1Cc1ccccc1	0.121 (inactive)
CC(C)(C)N1CC=CC23O[C@@H]4C=CCOC(=O)[C@@H]4[C@H]2C(=O)N(CCCCCCO)[C@@H]3C1=O (stereo not given in full)	0.804 (inactive)
COC(=O)c1c2oc(c1C(=O)OC)C(=O)N(Cc1ccccc1)Cc1cn(nn1)C[C@H](Cc1ccccc1)NC(=O)N[C@H](CO)CC2	-2.12 (inactive)
NC(N)=NCCCn1cc(CNC(=O)[C@@H](N)Cc2ccccc2)nn1	0.292 (inactive)
COc1ccc([Si](C)(C)[C@@H]2[C@@H](CCn3cc([C@H](O)c4ccccc4)nn3)O[C@]3(C(=O)N(Cc4ccc(N5CCC5=O)cc4)c4ccccc43)[C@H]2C)cc1	-0.619 (inactive)
O=C1OCCC=C[C@H]2OC34C=CCN(Cn5nnc6ccccc65)C(=O)[C@H]3N(CCCCCCO)C(=O)[C@@H]4C12 (stereo not given in full)	0.415 (inactive)
CO[C@H]1O[C@H](CO)[C@@H](OC(=O)Nc2ccccc2-c2ccccc2)[C@H](OC(=O)Nc2ccc3c(c2)OCO3)[C@H]1OC(=O)Nc1ccc2c(c1)OCO2	-1.2 (inactive)
CN(C)CCCCNC(=O)[C@@H]1C[C@@H]2C(=O)N[C@@H](Cc3ccccc3)C(=O)N2[C@@H]1c1cccc(OCCO)c1	-1.88 (inactive)
COC(=O)C(CC#Cc1ccc2c(c1)[C@]1(C(=O)N2)[C@H](C(=O)N2CCN(c3ncccn3)CC2)[C@H]2C(=O)O[C@H](c3ccccc3)[C@H](c3ccccc3)N2[C@@H]1c1ccc(OCCO)cc1)C(=O)OC	-0.152 (inactive)
C=CCC(OC(C)=O)[C@@H]1[C@@H](N(Cc2cccc3ccccc23)C(=O)Cc2ccc(F)cc2)c2cc(OCCCO)ccc2N1C(=O)c1ccc2ccccc2n1 (stereo not given in full)	0.866 (inactive)
CCC(CC)C(O)C1C=CC2C(=O)N(c3ccccc3)C(=O)C2N1Nc1ccc(C(C)C)cc1 (stereo not given)	-0.0169 (inactive)
COc1ccc(CN(C2=CC[C@@]3(C(N)=O)C(=O)C(Cl)=C(Cl)C(=O)[C@@]3(C#N)C2)S(=O)(=O)c2ccc(Br)cc2)cc1	-2.69 (inactive)
CCOC(=O)C[C@H]1[C@H](OC(=O)Cc2ccc3c(c2)OCO3)[C@@H](NC(=O)Cc2ccc(OC)cc2)c2cc(OCCCO)ccc2N1C(=O)c1ccc2ccccc2n1	-0.95 (inactive)
CCOC(=O)C[C@H]1[C@H](OC(=O)c2cc3ccccc3oc2=O)[C@@H](NC(=O)Cc2ccc(OC)cc2)c2cc(OCCCO)ccc2N1C(=O)c1ccc2ccccc2n1	0.126 (inactive)
COc1ccc([Si](C)(C)[C@H]2[C@H](CCn3cc([C@H](O)c4ccccc4)nn3)O[C@@]3(C(=O)N(Cc4ccc(N5C(=O)c6cccc7cccc5c67)cc4)c4ccccc43)[C@@H]2C)cc1	-0.64 (inactive)
COc1ccccc1CN1C(=O)c2ccccc2[C@@]2(Cc3ccccc3N(CC(F)(F)F)C2=O)[C@@H]1c1ccc(CO)cc1	1.49 (inactive)
COC(=O)[C@@]1(Cc2ccc(OC)cc2)[C@H]2c3cc(C(=O)N(C)C)n(Cc4ccc(Cl)c(C(F)(F)F)c4)c3C[C@H]2CN1C(=O)c1ccccc1	0.524 (inactive)
CCCCCCCCCCC(O)C1C=CC2C(=O)N(C)C(=O)C2N1Nc1ccc([N+](=O)[O-])cc1[N+](=O)[O-] (stereo not given)	1.62 (inactive)
Cc1ccccc1C(O)C1C=CC2C(=O)N(C)C(=O)C2N1N(c1ccccc1)c1ccccc1 (stereo not given)	0.595 (inactive)
CC=CC(O)C1C=CC2C(=O)N(c3ccccc3)C(=O)C2N1Nc1ccccc1F (stereo not given)	0.095 (inactive)
C=CCN1C(=O)[C@@]2(CCS(=O)(=O)c3ccccc3)N=C(c3ccc(OCCCO)cc3)O[C@H]2c2ccccc21	0.095 (inactive)
CN1C(=O)C2C=CC(C(O)COCc3ccccc3)N(N(c3ccccc3)c3ccccc3)C2C1=O (stereo not given)	0.915 (inactive)

These entries and their values trace back to PubChem BioAssay.
